- Assay Procedure: MTT cell viability assay, HeLa cells
- Type: cell-based, human
- Protocol Conditions: human, HeLa cells, 15 μM, MTT
Reported Metric: viability at 24 h, 15 µM

Query block: Fill in reported viability at 24 h, 15 µM for this entry: Oc1cc(OCCCCCCN2CCOCC2)ccc1/C=N/N=C1c2ccccc2-c2ccccc21
Result block: > 80%
